target: PKN3 (Homo sapiens, UniProt Q6P5Z2); assay: NanoBRET in-cell target engagement in HEK293T cells: PKN3; type: cell-based; parameters: full-length PKN3, CSNK2A1 or CSNK2A2 ORF; host or cells: HEK293T; settings: average of replicates; read-out: Average of IC50 values NanoBRET PKN3;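 note: Full-length PKN3 with C-terminal NanoLuc expressed in HEK293T cells, serial inhibitor dilutions competing against Kinase Tracer K5 at 500 nM, BRET read after 2 h at 37 °C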
Sequence (Q6P5Z2 whole entry): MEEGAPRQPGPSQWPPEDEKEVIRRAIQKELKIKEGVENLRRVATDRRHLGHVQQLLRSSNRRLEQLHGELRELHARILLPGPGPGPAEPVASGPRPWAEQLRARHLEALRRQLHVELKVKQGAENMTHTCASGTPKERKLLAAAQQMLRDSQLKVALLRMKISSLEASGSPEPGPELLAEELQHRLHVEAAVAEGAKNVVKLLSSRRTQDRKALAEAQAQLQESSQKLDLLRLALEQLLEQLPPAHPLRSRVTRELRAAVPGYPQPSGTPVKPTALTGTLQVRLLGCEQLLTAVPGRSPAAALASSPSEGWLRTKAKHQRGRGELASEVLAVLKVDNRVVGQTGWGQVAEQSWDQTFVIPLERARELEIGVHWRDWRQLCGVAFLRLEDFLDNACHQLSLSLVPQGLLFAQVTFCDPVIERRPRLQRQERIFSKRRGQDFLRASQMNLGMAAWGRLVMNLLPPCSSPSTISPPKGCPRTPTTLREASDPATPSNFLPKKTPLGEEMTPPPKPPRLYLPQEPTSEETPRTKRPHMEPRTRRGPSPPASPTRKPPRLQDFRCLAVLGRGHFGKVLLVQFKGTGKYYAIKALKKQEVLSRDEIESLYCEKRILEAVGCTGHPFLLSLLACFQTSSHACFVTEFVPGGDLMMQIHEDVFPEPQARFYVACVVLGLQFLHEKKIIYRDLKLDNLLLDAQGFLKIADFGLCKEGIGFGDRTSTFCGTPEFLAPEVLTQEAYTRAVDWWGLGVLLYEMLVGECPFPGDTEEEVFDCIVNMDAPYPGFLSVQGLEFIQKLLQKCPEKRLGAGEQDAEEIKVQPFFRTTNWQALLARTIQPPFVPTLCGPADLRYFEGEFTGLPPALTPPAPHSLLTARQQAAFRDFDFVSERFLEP
pIC50: −log10 of the molar value.
pIC50 below 6 gives not met; pIC50 at or above it gives met.

>>> answer_label("CCn1c(-c2nonc2N)nc2c(-c3ccccc3)ncc(OCCCN)c21 [GSK260205A]")
"met"
>>> answer_label("CCn1c(-c2nonc2N)nc2c(C#CC(C)(C)O)nc(CN3CCCC3)cc21 [GSK1000163A]")
"not met"
>>> answer_label("CCn1c(-c2nonc2N)nc2c(C#CC(C)(C)O)nc(OC[C@@H](N)c3ccccc3)cc21 [GSK938890A]")
"met"
>>> answer_label("CCn1c(-c2nonc2N)nc2c(C#CC(C)(C)O)nc(OCCN)cc21 [GSK902056A]")
"met"
>>> answer_label("NCc1ccc(-c2nc(-c3ccncc3)c(-c3ccc(Cl)c(O)c3)[nH]2)cc1 [SB-476429-A]")
"met"
>>> answer_label("Cc1cccc2c(-c3ccncn3)c(-c3ccc(F)cc3)nn12 [GW515532X]")
"not met"
>>> answer_label("CCn1c(-c2nonc2N)nc2c(C#CCN)ncc(OCCCN)c21 [GSK561866B]")
"not met"
>>> answer_label("CCOc1nccc2c1nc(-c1nonc1N)n2CC [SB-737198]")
"not met"
>>> answer_label("CNc1ncc2cc(-c3cc(NC(=O)NCCC(C)(C)C)c(F)cc3C)c(C)nc2n1 [LY3009120, reference compound]")
"met"
>>> answer_label("Cc1cccc(-c2nc(Nc3ccncc3)c3sccc3n2)n1 [GW869641X]")
"not met"
>>> answer_label("ON=C1CCc2cc(-c3nc(C4CCNCC4)[nH]c3-c3ccncc3)ccc21 [SB-614067-R]")
"not met"
>>> answer_label("Fc1ccc(-c2c(-c3ccncc3)[nH]c3cccnc23)cc1 [RO1153853-000]")
"not met"

* * *

target: endogenous kinases and other proteins enriched by Kinobeads from mixed cancer cell lysates (Homo sapiens); construct: endogenous in cells; assay: Kinobeads pulldown, full dose-response (eight doses); settings: target AURKA; read-out: apparent Kd;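 note: competition with Kinobeads ε after inhibitor preincubation in lysate (5 mg/ml protein) for 45 min at 4 °C, DMSO control, doses 0.3–1,000 nM, label-free LC–MS/MS quantification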
Sequence (O14965 whole entry): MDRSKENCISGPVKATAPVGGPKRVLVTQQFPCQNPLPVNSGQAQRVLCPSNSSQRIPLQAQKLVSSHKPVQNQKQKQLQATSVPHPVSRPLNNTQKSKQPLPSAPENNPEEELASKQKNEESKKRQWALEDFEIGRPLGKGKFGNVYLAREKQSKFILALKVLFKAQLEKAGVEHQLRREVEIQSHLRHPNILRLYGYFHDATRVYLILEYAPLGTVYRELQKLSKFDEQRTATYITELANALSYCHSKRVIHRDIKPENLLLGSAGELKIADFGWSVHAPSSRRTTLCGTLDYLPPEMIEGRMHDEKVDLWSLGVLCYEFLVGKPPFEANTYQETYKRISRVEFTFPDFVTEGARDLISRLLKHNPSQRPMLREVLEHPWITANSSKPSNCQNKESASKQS
pKd: −log10 of the molar value.
MEASUREMENT NAME: pKd

>>> endpoint_value("Cn1cc(-c2nc(N[C@@H]3CCCC[C@@H]3N)c(F)c3c2C(=O)NC3)cn1 [TAK659]")
6.23

* * *

molecular target: CDK1/cyclinB (Homo sapiens); test: Recombinant kinase activity assay (ProQinase, FlashPlate radiometric): CDK1/cyclinB; settings: Enzyme CDK1_CycB1; Highest Assay Concentration 1.00E-06 M
Sequence (P06493 whole entry): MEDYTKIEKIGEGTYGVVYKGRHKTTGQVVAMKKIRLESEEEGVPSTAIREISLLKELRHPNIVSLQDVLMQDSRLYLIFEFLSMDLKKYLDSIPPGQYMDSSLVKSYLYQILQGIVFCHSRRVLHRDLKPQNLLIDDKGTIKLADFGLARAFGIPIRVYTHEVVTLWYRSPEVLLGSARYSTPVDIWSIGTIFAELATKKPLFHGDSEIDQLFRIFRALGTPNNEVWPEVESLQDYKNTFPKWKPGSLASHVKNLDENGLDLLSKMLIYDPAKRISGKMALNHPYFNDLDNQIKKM
Sequence (P14635 whole entry partner): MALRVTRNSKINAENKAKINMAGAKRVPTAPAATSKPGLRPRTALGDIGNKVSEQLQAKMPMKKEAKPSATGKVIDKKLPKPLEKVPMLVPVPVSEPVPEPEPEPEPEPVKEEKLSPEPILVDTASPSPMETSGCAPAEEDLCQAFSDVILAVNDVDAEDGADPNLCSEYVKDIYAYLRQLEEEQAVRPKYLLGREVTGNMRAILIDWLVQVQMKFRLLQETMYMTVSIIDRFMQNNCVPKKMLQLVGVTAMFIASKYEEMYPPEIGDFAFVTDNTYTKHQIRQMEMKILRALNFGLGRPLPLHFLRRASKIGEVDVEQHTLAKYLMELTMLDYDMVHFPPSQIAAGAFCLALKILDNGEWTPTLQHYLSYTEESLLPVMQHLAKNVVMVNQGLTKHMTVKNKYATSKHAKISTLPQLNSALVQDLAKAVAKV
pIC50: −log10 of the molar value.
MEASUREMENT NAME: pIC50

>>> endpoint_value("CONC1=NC(=O)/C(=C/c2ccc3ncccc3c2)S1")
"< 6.00"

* * *

target: PKN3 (Homo sapiens); test: NanoBRET in-cell target engagement in HEK293T cells: PKN3; type: cell-based; parameters: full-length PKN3, CSNK2A1 or CSNK2A2 ORF; host or cells: HEK293T; details: biological replicate number 1; read-out: Rep 1 IC50 NanoBRET PKN3
MEASUREMENT NAME: IC50 (nM)

>>> endpoint_value("CCn1c(-c2nonc2N)nc2c(C#CC(C)(C)O)nc(OC[C@@H](N)c3ccccc3)cc21 [GSK938890A]")
310
>>> endpoint_value("CCn1c(-c2nonc2N)nc2c(-c3ccccc3)ncc(OCCCN)c21 [GSK260205A]")
73.6
>>> endpoint_value("Cc1cccc(-c2nc(Nc3ccncc3)c3sccc3n2)n1 [GW869641X]")
4190
>>> endpoint_value("CCn1c(-c2nonc2N)nc2c(C#CC(C)(C)O)nc(OCCNC)cc21 [GSK949675A]")
1950

* * *

# pIC50 annotations
target: PKN3 (Homo sapiens); assay: NanoBRET in-cell target engagement in HEK293T cells: PKN3; type: cell-based; set-up: full-length PKN3, CSNK2A1 or CSNK2A2 ORF; host or cells: HEK293T; conditions: biological replicate number 4; read-out: Rep 4 IC50 NanoBRET PKN3
pIC50: −log10 of the molar value.
MEASUREMENT NAME: pIC50

>>> endpoint_value("CCn1c(-c2nonc2N)nc2c(C#CC(C)(C)O)nc(OC[C@@H](N)c3ccccc3)cc21 [GSK938890A]")
7.65
>>> endpoint_value("ON=C1CCc2cc(-c3nc(C4CCNCC4)[nH]c3-c3ccncc3)ccc21")
5.74
>>> endpoint_value("CCn1c(-c2nonc2N)nc2c(-c3ccccc3)ncc(OCCCN)c21 [GSK260205A]")
8.47
>>> endpoint_value("CCn1c(-c2nonc2N)nc2c(C#CC(C)(C)O)nc(CN3CCCC3)cc21 [GSK1000163A]")
5.84

* * *

biological target: PRKCQ (Homo sapiens, UniProt Q04759); construct: to maximize the representation of endogenous proteins; endogenous in cells; test: Kinobeads full dose-response competition binding: PRKCQ; settings: Gene Name PRKCQ; EC50 with Correction, doses in nM; read-out: apparent Kd
Sequence (Q04759 whole entry): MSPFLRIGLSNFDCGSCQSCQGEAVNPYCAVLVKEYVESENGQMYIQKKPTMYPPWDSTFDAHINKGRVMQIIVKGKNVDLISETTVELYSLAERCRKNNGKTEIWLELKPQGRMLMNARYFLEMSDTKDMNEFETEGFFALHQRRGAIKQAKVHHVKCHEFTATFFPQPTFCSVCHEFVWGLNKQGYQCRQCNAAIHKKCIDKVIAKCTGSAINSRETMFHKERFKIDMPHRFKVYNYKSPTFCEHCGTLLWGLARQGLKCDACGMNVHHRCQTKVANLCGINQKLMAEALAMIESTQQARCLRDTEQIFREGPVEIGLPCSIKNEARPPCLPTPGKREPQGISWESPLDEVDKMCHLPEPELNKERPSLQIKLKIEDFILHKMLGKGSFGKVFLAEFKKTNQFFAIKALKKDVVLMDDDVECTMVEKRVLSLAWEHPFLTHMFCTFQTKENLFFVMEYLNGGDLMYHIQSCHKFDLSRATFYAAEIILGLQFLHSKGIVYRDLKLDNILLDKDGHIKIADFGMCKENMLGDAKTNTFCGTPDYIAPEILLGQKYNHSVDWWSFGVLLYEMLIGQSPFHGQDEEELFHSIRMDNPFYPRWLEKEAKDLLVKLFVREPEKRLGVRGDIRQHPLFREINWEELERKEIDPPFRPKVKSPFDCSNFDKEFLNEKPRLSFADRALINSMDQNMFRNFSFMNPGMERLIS
MEASUREMENT NAME: Kd

>>> endpoint_value("CCn1c(-c2nonc2N)nc2c(C#CC(C)(C)O)nc(OCCN)cc21 [GSK902056A]")
"58.7 nM"

* * *

target: PRKCA (Homo sapiens, UniProt P17252); construct: endogenous in cells; test: Kinobeads full dose-response competition binding: PRKCA; conditions: Gene Name PRKCA; EC50 with Correction, doses in nM; read-out: apparent Kd
MEASUREMENT NAME: Kd (nM)

>>> endpoint_value("Cc1cccc(Nc2nc(N[C@H]3CCCC[C@H]3N)ncc2C(N)=O)c1 [GSK986310C]")
272

* * *

Target: ACAD11 (Homo sapiens, UniProt Q709F0)
Construct: endogenous in cells
Sequence (Q709F0 1-780): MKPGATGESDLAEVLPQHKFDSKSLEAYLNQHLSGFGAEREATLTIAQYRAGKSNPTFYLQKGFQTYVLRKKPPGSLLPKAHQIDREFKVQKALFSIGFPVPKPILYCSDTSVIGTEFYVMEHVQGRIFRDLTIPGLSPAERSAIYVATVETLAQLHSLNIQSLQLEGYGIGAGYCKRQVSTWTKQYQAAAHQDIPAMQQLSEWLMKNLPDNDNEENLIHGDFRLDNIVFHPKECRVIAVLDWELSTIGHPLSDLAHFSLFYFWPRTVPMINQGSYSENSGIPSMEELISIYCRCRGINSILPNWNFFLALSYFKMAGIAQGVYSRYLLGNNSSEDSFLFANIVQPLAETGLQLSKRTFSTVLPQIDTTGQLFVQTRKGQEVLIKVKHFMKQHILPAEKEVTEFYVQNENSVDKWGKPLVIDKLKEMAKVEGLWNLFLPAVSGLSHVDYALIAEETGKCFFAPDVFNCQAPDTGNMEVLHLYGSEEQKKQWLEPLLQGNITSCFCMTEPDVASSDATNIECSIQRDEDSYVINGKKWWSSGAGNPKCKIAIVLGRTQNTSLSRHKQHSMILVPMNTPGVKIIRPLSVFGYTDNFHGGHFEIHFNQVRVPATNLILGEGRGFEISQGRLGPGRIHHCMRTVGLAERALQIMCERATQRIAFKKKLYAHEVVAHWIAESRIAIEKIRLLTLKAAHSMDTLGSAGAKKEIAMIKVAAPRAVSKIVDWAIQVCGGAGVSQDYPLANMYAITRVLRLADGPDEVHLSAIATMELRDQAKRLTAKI
Experiment: Kinobeads two-dose competition binding: ACAD11
Conditions: sheet CATDS matrix 2; Gene Name ACAD11
MEASUREMENT NAME: CATDS

>>> endpoint_value("Oc1ccc2ncnc(Nc3ccc(OCc4ccccc4)cc3)c2c1 [GI262866A]")
0
>>> endpoint_value("COc1cc(N2CCN(C(C)C)CC2)ccc1Nc1nc(Nc2ccc(F)cc2C(N)=O)c2cc[nH]c2n1 [GSK1220512A]")
0
>>> endpoint_value("Cc1ccc(NC(=O)Nc2ccccc2)cc1-c1ccc(C(=O)Nc2ccncc2)cc1 [GSK1398471A]")
0
>>> endpoint_value("O=S(=O)(c1cccc2cnccc12)N1CCCNCC1 [Fasudil, reference compound]")
0

* * *

biological target: AAK1 (Homo sapiens, UniProt Q2M2I8); construct: to maximize the representation of endogenous proteins; endogenous in cells; test: Kinobeads two-dose competition binding: AAK1; settings: sheet CATDS matrix 2; Gene Name AAK1;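 note: kinobeads competition pulldown from cell lysate, compound preincubated 45 min at 4 °C, bead-bound protein measured by label-free mass spectrometry against DMSO vehicle control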
Sequence (Q2M2I8 whole entry): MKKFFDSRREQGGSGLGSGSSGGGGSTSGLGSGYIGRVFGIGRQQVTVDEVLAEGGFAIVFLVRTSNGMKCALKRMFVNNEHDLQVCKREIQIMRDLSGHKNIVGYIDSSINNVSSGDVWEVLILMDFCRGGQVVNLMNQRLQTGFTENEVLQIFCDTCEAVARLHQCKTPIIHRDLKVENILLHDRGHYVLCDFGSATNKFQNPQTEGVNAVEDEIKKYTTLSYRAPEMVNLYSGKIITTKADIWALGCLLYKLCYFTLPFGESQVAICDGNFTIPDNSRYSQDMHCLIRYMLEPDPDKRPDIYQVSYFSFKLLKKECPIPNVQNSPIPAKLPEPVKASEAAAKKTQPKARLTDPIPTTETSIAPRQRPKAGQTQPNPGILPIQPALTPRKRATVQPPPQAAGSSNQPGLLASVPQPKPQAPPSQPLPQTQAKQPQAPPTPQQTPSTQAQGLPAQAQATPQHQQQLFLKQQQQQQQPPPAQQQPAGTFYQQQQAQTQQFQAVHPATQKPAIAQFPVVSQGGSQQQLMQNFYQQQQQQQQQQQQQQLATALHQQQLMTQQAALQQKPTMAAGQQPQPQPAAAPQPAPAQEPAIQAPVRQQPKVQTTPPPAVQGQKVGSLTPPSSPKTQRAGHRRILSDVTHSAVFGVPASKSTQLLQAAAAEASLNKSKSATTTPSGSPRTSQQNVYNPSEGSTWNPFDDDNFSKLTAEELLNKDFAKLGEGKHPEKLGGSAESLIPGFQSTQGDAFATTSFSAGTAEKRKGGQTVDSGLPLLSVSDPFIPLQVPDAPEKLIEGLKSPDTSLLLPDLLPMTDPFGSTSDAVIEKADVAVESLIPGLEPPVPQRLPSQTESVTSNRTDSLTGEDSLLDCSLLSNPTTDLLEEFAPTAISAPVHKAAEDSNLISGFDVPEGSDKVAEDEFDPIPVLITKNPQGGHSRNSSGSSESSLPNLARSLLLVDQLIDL
MEASUREMENT NAME: CATDS

>>> endpoint_value("CCn1c(-c2nonc2N)nc2c(C#CC(C)(C)O)nc(CN3CCCC3)cc21 [GSK1000163A]")
0
>>> endpoint_value("NC(=O)c1sc(-n2cnc3ccccc32)cc1OCc1ccccc1F [GSK1024306A]")
0
>>> endpoint_value("COc1cc(C)c(NC(=O)CN(C)C)cc1Nc1nc(Nc2cccc(F)c2C(N)=O)c2cc[nH]c2n1 [GSK2213727A]")
0
>>> endpoint_value("NC[C@H](CC1CCCCC1)NC(=O)c1cc(Br)c(-c2ccnc3[nH]ccc23)s1 [GSK1581427A]")
0
>>> endpoint_value("O=C(NCCNc1ccnc(NCc2ccc(F)cc2)n1)c1cc2ccccc2s1 [GSK1379944A]")
0
>>> endpoint_value("NCCCC(NC(=O)c1cc(Br)c(-c2ccnc3[nH]ccc23)s1)c1ccccc1 (centres unmarked) [GSK1287544A]")
0
>>> endpoint_value("CCCc1ccc(S(=O)(=O)NC2CCN(c3ccnc(Nc4ccc(OC)cc4)n3)C2)cc1 (centres unmarked) [GSK1379737A]")
0
>>> endpoint_value("CC(=O)N1CCN(c2ccc(Nc3nccc(-c4sc(C(C)C)nc4-c4cccc(NS(=O)(=O)c5cccc(Cl)c5)c4)n3)cn2)CC1 [GSK1660437A]")
0
>>> endpoint_value("COc1cc(Nc2nccc(N3CCC(NC(=O)C4COc5ccccc5O4)C3)n2)cc(OC)c1OC (centres unmarked) [GSK1379761A]")
0
>>> endpoint_value("CNC(=O)c1ccccc1Sc1ccc2c(/C=C/c3ccccn3)n[nH]c2c1 [Axitinib, reference compound]")
0
>>> endpoint_value("CSc1nn2c(=O)cc(N3CCOCC3)nc2n1Cc1cccc(Cl)c1Cl [GSK2347225A]")
0
>>> endpoint_value("COc1cc2nccc(Oc3ccc(NC(=O)C4(C(=O)Nc5ccc(F)cc5)CC4)cc3)c2cc1OC [Cabozantinib, reference compound]")
0
>>> endpoint_value("O=c1cc(N2CCOCC2)nc2n(Cc3ccccc3F)ccn12 [GSK2297428A]")
0
>>> endpoint_value("Cc1cccc(Cn2ccn3c(=O)cc(N4CCOCC4)nc23)c1 [GSK2297542A]")
0
>>> endpoint_value("COc1cc(Nc2ccnc3ccc(Br)cc23)cc(OC)c1OC")
0
>>> endpoint_value("C[C@@H]1CCCCN1c1cc(-c2ccc3c(N)n[nH]c3c2)nc(N)n1 [GSK2258759A]")
0
>>> endpoint_value("COc1cc2c(cc1Nc1nc(Nc3ccsc3C(N)=O)c3cc[nH]c3n1)N(C(=O)CN(C)C)CCC2 [GSK2110236A]")
0
>>> endpoint_value("CCN1CCN(Cc2ccc(C(=O)Nc3ccc(C)c(Oc4ccc5c(c4)CC(=O)N5)c3)cc2C(F)(F)F)CC1")
0
>>> endpoint_value("COc1cc(N2CCN(C(C)C)CC2)ccc1Nc1nc(Nc2ccc(F)cc2C(N)=O)c2cc[nH]c2n1 [GSK1220512A]")
0
>>> endpoint_value("COc1cc2c(cc1OC)C(=C(Nc1ccccc1)c1cccc(CN)c1)C(=O)N2 [BIBF0846CL]")
0
>>> endpoint_value("COc1cc(Nc2nccc(N3CCC(NS(=O)(=O)c4ccc(NC(C)=O)cc4)CC3)n2)cc(OC)c1OC [GSK1379825A]")
0
>>> endpoint_value("O=c1cc(N2CCOCC2)nc2n(Cc3cccc(Cl)c3Cl)c3ccccc3n12 [GSK2299009A]")
0
>>> endpoint_value("Clc1cc(Cl)cc(Nc2ccnc(Nc3cc(Cl)cc(Cl)c3)n2)c1 [GSK175726A]")
0.01178
>>> endpoint_value("CCc1cc2c(cc1N1CCC(N3CCOCC3)CC1)C(C)(C)c1[nH]c3cc(C#N)ccc3c1C2=O")
0
>>> endpoint_value("CC(C)c1nc(-c2ccc(F)c(NS(=O)(=O)c3c(F)cccc3F)c2)c(-c2ccnc(Nc3ccc(N4CCOCC4)nc3)n2)s1 [GSK1804250A]")
0
>>> endpoint_value("COc1cc(N2CCC(N3CCN(C)CC3)CC2)ccc1Nc1ncc(Cl)c(Nc2ccccc2P(C)(C)=O)n1 [Brigatinib, reference compound]")
0.01731
>>> endpoint_value("CCN1CCN(Cc2ccc(Nc3ncc(F)c(-c4cc(F)c5nc(C)n(C(C)C)c5c4)n3)nc2)CC1")
0.04695
>>> endpoint_value("O=c1[nH]cc(-c2ccc(N3CCOCC3)cc2)c2sc(-c3cn[nH]c3)cc12 [GSK2276055A]")
0
>>> endpoint_value("Nc1nccc(-c2ccc3c(N)n[nH]c3c2)n1 [GSK1034945A]")
0.08249
>>> endpoint_value("NCC(NCc1ccc(-c2ccnc3[nH]ccc23)s1)c1ccccc1 (centres unmarked) [GSK1321565A]")
0.2016
>>> endpoint_value("COc1c(OCCCN2CCOCC2)ccc2c1N=C(NC(=O)c1cnc(N)nc1)N1CCN=C21 [Copanlisib, reference compound]")
0
>>> endpoint_value("COC(=O)C(NC(=O)NC1CCN(c2ccnc(Nc3ccc(F)cc3)n2)C1)c1ccccc1 (centres unmarked)")
0
